- Tested on: HepaRG
- protocol text: Cytotoxicity (CellTiter-Glo ATP viability) in HepaRG cells, 48 h exposure
- Format: cell-based
- condition set: Homo sapiens, range of three independent experiments
pEC50: −log10 of the molar value.
measured endpoint: pEC50

Consider the worked cases shown below.
>>> df
                                   molecule  experimental_result
0                           CCCC(CCC)C(=O)O         2.22 to 2.38
1            O=C(O)Cc1ccccc1Nc1c(Cl)cccc1Cl         3.36 to 3.56
2  Cc1c(C)c2c(c(C)c1O)CCC(C)(COc1ccc(CC3SC(=O)NC3=O)cc1)O2 (centres unmarked)         4.35 to 4.83
3                        CC(=O)Nc1ccc(O)cc1         2.22 to 2.46

Lab note: measured pEC50 of C1CCC(C(CC2CCCCN2)C2CCCCC2)CC1 (centres unmarked) was 4.58 to 4.98
